# TARGET_ENTITY: α2β2 nAChR subtype (Rattus norvegicus, UniProt P12389+P12390)
# Construct: expressed in transfected cells
# Sequence (P12390 25-500): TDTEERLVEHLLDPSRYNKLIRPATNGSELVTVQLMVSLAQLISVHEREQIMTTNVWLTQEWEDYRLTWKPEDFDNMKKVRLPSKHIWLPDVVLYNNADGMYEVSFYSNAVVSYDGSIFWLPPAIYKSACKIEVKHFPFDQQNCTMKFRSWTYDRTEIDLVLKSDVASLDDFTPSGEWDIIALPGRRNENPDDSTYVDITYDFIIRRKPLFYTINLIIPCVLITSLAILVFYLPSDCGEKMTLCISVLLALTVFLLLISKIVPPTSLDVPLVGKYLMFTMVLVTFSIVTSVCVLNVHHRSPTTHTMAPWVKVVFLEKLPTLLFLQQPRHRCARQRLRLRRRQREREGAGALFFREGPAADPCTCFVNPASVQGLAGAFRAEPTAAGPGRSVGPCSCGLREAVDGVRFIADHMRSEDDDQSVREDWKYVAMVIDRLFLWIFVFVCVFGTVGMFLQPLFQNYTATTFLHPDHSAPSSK
# Sequence (P12389 28-511): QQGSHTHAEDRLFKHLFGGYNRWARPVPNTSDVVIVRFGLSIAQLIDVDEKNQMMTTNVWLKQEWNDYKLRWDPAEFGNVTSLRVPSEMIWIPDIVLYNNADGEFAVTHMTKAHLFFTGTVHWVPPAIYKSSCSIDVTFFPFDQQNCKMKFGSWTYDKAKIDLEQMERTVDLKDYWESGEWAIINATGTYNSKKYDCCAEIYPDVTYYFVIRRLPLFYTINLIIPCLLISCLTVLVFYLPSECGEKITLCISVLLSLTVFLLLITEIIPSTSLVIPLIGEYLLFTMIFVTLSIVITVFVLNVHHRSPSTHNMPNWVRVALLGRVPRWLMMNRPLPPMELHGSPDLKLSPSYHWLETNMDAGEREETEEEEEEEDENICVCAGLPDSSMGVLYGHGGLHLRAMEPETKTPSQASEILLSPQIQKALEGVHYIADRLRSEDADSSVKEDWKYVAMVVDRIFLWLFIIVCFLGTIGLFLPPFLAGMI
# EXPERIMENT_DESCRIPTION: biochemical
# Type: binding
# CONDITION_SUMMARY: Table 5; rat nAChR subtypes; read-out: Ki α2β2
Mark Y for Ki under 6 nM, N if at or over.

Inquiry: For this molecule, is Ki lower than 6 nM? CCCCC#Cc1cncc(OC[C@@H]2CCCN2C)c1 [Ligand 12]
Reply text: N

Inquiry: For this molecule, is Ki lower than 6 nM? CN1CCC[C@H]1COc1cncc(C#CCCCCCCCCO)c1 [Ligand 17]
Reply text: N

Inquiry: For this molecule, is Ki lower than 6 nM? CN1CCC[C@H]1COc1cncc(CCCCCCO)c1 [Ligand 19]
Reply text: Y

Inquiry: For this molecule, is Ki lower than 6 nM? Clc1ccc2c(n1)CCC1C3CCC(N3)C21 (stereo not drawn) [Ligand 37b]
Reply text: N

Inquiry: For this molecule, is Ki lower than 6 nM? C#Cc1cncc(OC[C@@H]2CCCN2C)c1 [Ligand 18]
Reply text: Y

Inquiry: For this molecule, is Ki lower than 6 nM? CN1CCC[C@H]1COc1cncc(C#CC(C)(C)O)c1 [Ligand 15]
Reply text: Y

Inquiry: For this molecule, is Ki lower than 6 nM? CN1CCC[C@H]1COc1cncc(C#CCO)c1 [Ligand 14]
Reply text: Y

Inquiry: For this molecule, is Ki lower than 6 nM? CN1CCC[C@H]1COc1cncc(C#CCCCCO)c1 [Ligand 16]
Reply text: Y

Data provenance is patent US8030300B2.
